# systemUnderTest: Cholinesterase (Equus caballus)
# Sequence (P81908 whole entry): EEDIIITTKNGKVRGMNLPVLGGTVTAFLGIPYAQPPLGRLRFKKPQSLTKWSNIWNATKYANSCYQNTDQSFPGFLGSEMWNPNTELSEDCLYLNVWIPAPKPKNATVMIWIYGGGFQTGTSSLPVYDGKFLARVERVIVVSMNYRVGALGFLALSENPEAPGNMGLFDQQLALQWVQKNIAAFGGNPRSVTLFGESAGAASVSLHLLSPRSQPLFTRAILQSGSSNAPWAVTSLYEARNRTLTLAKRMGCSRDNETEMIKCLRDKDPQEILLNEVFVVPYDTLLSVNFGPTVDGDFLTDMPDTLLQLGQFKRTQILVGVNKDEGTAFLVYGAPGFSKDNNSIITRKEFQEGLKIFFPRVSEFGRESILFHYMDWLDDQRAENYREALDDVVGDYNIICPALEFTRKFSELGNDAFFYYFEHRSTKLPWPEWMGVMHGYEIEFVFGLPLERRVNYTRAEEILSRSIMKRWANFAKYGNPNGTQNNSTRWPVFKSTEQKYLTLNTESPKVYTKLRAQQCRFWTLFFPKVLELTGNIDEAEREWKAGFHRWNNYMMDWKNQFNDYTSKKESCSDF
# assayDetails: Inhibition of equine serum BuChE using S-butyrylthiocholine iodide as substrate and measured for 60 secs by Ellman's method
Please go through the items and note down their pIC50.
One number for each entry, as −log10 of the molar value.

Below are worked cases with known answers.
Data request: Data request, read-out pIC50, for "CC(C)(C)OC(=O)NCCCC[C@H](NC(=O)OCC1c2ccccc2-c2ccccc21)C(=O)OCC[N+](C)(C)C"
Data returned: 6.30

Data request: Data request, read-out pIC50, for "C[C@H](NC(=O)OCC1c2ccccc2-c2ccccc21)C(=O)NCC[N+](C)(C)C.[I-]"
Data returned: 5.12

Data request: Data request, read-out pIC50, for "C[N+](C)(C)CCOC(=O)[C@H](Cc1ccccc1)NC(=O)OCC1c2ccccc2-c2ccccc21"
Data returned: 6.00

Data request: Data request, read-out pIC50, for "CC(C)(C)OC(=O)n1cc(C[C@H](NC(=O)OCC2c3ccccc3-c3ccccc32)C(=O)O)c2ccccc21"
Data returned: 4.64

Data request: Data request, read-out pIC50, for "CC(C)(C)OC(=O)n1cc(C[C@H](NC(=O)OCC2c3ccccc3-c3ccccc32)C(=O)OCC[N+](C)(C)C)c2ccccc21"
Data returned: 6.40

Below is a list of compounds. For each, state its recorded pIC50.
1. C[N+](C)(C)CCNC(=O)[C@H](Cc1ccccc1)NC(=O)OCC1c2ccccc2-c2ccccc21.[I-]
2. CC(C)C[C@H](NC(=O)OCC1c2ccccc2-c2ccccc21)C(=O)O
3. CC(C)(C)OC(=O)NCCCC[C@H](NC(=O)OCC1c2ccccc2-c2ccccc21)C(=O)O
4. C[C@H](NC(=O)OCC1c2ccccc2-c2ccccc21)C(=O)OCC[N+](C)(C)C
5. CC(C)(C)OC(=O)NCCCC[C@H](NC(=O)OCC1c2ccccc2-c2ccccc21)C(=O)NCC[N+](C)(C)C.[I-]

Data returned:
[6.22, 3.87, 4.39, 5.29, 6.85]

Below is a list of compounds. For each, state its recorded pIC50.
1. CC(C)C[C@H](NC(=O)OCC1c2ccccc2-c2ccccc21)C(=O)NCC[N+](C)(C)C.[I-]
2. O=C(N[C@@H](Cc1ccccc1)C(=O)O)OCC1c2ccccc2-c2ccccc21

Data returned:
[5.74, 3.49]
